# System: BFTC-905
# assay.summary: cells
# Assay type: functional, cell-based
# conditions.used: Homo sapiens
# Description: SANGER: Inhibition of human BFTC-905 cell growth in a cell viability assay.
measurement.name: IC50 (µM)
Write it as a number; the unit µM goes unstated.

Record OC[C@H](Cc1ccccc1)Nc1nc(Oc2ccc3c(c2)CCC3)nc2c1ncn2Cc1ccc(-c2ccccc2)cc1 . Reported IC50: 5.02

IC50 measured on O=C1NC(=O)c2c1c(-c1ccccc1Cl)cc1[nH]c3ccc(O)cc3c21 = 1.62

Lab book: IC50 of O=C(NCCCNc1nc(Nc2cccc(NC(=O)N3CCCC3)c2)ncc1I)c1cccs1 [BX-795] noted as 1.08

====

Provide the recorded IC50 for the entries that follow.
# System: CTV-1;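 also: growth inhibition of the cell line, read out with a cell viability assay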
# assay.summary: cells
# Type: functional, cell-based, Homo sapiens
# conditions.used: Homo sapiens, CTV-1
# Description: SANGER: Inhibition of human CTV-1 cell growth in a cell viability assay.
Report the figure in µM without appending any unit label.

Just so you know, measured IC50 for Nc1ccccc1NC(=O)c1ccc(CNC(=O)OCc2cccnc2)cc1 came out at 1.27

Reported IC50 ( COc1ccc(-c2cc3nccn3c(Nc3ncccc3C(N)=O)n2)cc1OC ) = 1.5

Recorded IC50 (compound C/C(=C\c1csc(C)n1)[C@@H]1C[C@@H]2O[C@]2(C)CCC[C@H](C)[C@H](O)[C@@H](C)C(=O)C(C)(C)[C@@H](O)CC(=O)O1 ): 0.00516
